- System: SNB-75 CNS
- method summary: NCI-60 one-dose screen, 48 h
- details: 10 µM unless noted
The panel holds about 83,000 compounds, 20% with a hit somewhere; the sample as a whole holds those more often. Activity calls are given as the source filed them. How the source made its calls: active means growth percent below 10; inactive means the rest.
I would appreciate it if you answered using one of these outcomes: active, inactive

[[record]]
molecule = "CN1CC=C(c2cc(NC(=O)Nc3ccc(Oc4ccnc(NC(=O)C5CC5)c4)c(F)c3)cc(C(F)(F)F)c2)CC1"
label = "active"

[[record]]
molecule = "Cc1[nH]c2ncnc(Oc3ccc(NC(=O)Nc4ccc(Cl)c(C(F)(F)F)c4)cc3)c2c1C"
label = "inactive"

[[record]]
molecule = "N#CC1C(c2ccc(Cl)cc2)=Nc2c(c(-c3ccccc3)nn2-c2ccccc2)C12C(=O)Nc1ccc(Cl)cc12 (centres undefined)"
label = "inactive"

[[record]]
molecule = "CC(=O)Nc1ccc2c(c1)Cc1cc(F)ccc1-2"
label = "inactive"


Problem: Recorded call for COc1ccc2nc(-c3ccc(Cl)cc3)cc(C(=O)N3N=C(c4ccc(N)cc4)CC3c3ccccc3)c2c1 (centres undefined) ?
Result: inactive

Problem: What outcome does the record of this test show for S=c1ssnc1-c1cc2ccccc2o1 ?
Result: inactive

###

- Test system: KM12 colon
- method summary: NCI-60 one-dose screen, 48 h (100 = growth as untreated, 0 = no growth, -100 = all killed)
- details: 10 µM unless noted
Compounds without any hit were thinned out: in the full panel of roughly 83,000, 20% have a hit.
Rule for this label: t means growth is less than 40%; f means growth is at least 40%.

Previously resolved entries follow.
[[record]]
compound = "COc1cc(C(=O)Nc2cc(OC)c3ccn(C)c3c2)cc2c1C[C@]1(C)CC[C@@H](O)C(C)(C)[C@H]1O2"
label = "t"

[[record]]
compound = "COc1ccc2c(c1)/C(=C1\\S/C(=N/c3nnc(C)s3)NC1=O)C(=O)N2Cc1ccc(Cl)cc1"
label = "t"

[[record]]
compound = "COc1ccc(OCC(=O)OC(C)C)cc1"
label = "f"

[[record]]
compound = "O=C(Nc1ccc2ncnc(Nc3ccc(F)c(Cl)c3)c2c1)c1ccccc1"
label = "f"

[[record]]
compound = "C(=C\\c1cn(-c2ccccc2)nc1-c1ccccc1)/c1nnc(-c2c[nH]c3ccccc23)o1"
label = "t"


Problem: I wonder whether COc1cc(-c2nn(-c3ccc(Br)cc3)cc2CO)ccc1O has growth below 40%. Can you tell?
Result: f

Problem: Decide: growth of Cc1nccc2c3ccc(OCc4cn(-c5ccc(Cl)cc5)nn4)cc3n(CC(C)C)c12 strictly below 40%?
Result: t

Problem: State whether 40% exceeds growth recorded for C=C1C(=O)O[C@H]2[C@H]1CC/C(C=Nc1c(N)cc(C(F)(F)F)cc1Br)=C\CC[C@@]1(C)O[C@@H]21 .
Result: t

Problem: Lab note: confirm whether the reported growth for this compound is below 40%, equality not counting. compound: CC(C)C[C@H](C(=O)O)N(C)C(=O)[C@@H]1CCCN1C(=O)[C@H](C)OC(=O)[C@H](CCC(N)=O)NC(=O)[C@@H]1CCC(=O)N1
Result: f

Problem: Field: below-cutoff. Rule: recorded growth strictly less than 40%. Subject: C#Cc1ccccc1NC(=O)c1sc2nc3c(cc2c1N)CCCCCC3
Result: f

Problem: Record O=C1Nc2ccccc2C12C=C(c1ccccc1)Nc1c2c(-c2ccccc2)nn1-c1ccccc1 (stereo unspecified) : is its growth strictly below 40%?
Result: f

Problem: For C=C1C(=O)O[C@H]2[C@H]1CC/C(COC(=O)c1cccnc1N)=C\CC[C@@]1(C)O[C@@H]21 , is the recorded growth below the cut-off of 40%?
Result: t

Problem: Dear colleague, could you confirm whether growth of COC(=O)/C=C/c1cc(OC)c2c(c1)[C@@H](C(=O)OC)[C@H](c1ccc(OC)c(OC)c1)O2 falls below 40%? Thanks.
Result: t

Problem: Is 40% strictly greater than the compound's reported growth? compound: NC(=N\N=C\c1ccccc1O)/C(N)=N/N=C/c1ccccc1O
Result: f

Problem: Would you kindly verify if growth of O=C(Nc1nc(-c2ccccc2Cl)cs1)c1cc(-c2ccc(Br)cc2)nc2ccccc12 is strictly less than 40%?
Result: f

Problem: growth under 40%? Item: CC(C)(C)CC(C)(C)Cc1ccc(OCCOCC[N+](C)(C)Cc2ccccc2)cc1
Result: t

Problem: Take the compound C#CCN1C(=O)c2ccccc2N(CC#C)C12CCN(Cc1cn(CC(=O)Nc3ccccc3C(N)=O)nn1)CC2 and say whether its growth is less than 40%.
Result: f
